# assay: MTS cytotoxicity assay on HeLa cells
# Assay type: cell-based
# testConditions: human, HeLa cervical carcinoma cells (ATCC CCL-2); HeLa, 24 h incubation, MTS; read-out: HeLa Cell CC50 in milli-molar
// returns not fulfilled unless CC50 at 24 h is strictly below 700 µM, in which case fulfilled

### Prompt In the record for `COC(=O)Cc1cc2c(cc1C(=O)c1ccccc1Br)OCO2` , is CC50 at 24 h less than 700 µM?
### Response not fulfilled

### Prompt Strictly below 700 µM: is that where CC50 at 24 h of `COC(=O)Cc1cc2c(cc1C(=O)c1ccccc1I)OCO2` sits?
### Response fulfilled

### Prompt Given the entry `COC(=O)Cc1cc2c(cc1C(=O)c1ccccc1)OCO2` , would its reported CC50 at 24 h be below 700 µM?
### Response not fulfilled

### Prompt Take the compound `O=C(O)Cc1cc2c(cc1C(=O)c1ccccc1Br)OCO2` and say whether its CC50 at 24 h is less than 700 µM.
### Response fulfilled

### Prompt Consider `O=C(O)Cc1cc2c(cc1C(=O)c1ccc(I)cc1)OCO2` . Does its CC50 at 24 h lie strictly below 700 µM?
### Response not fulfilled

* * *

# assay: MTS cytotoxicity assay on HeLa cells
# Format: cell-based
# testConditions: human, HeLa cervical carcinoma cells (ATCC CCL-2); HeLa, 24 h incubation, MTS; read-out: HeLa Cell CC50 in milli-molar
metric: CC50 at 24 h (µM)
Answers are plain numbers, in µM.

Worked set:
O=C(O)Cc1cc2c(cc1C(=O)c1cccc(Br)c1)OCO2 [4e] ... 437
COC(=O)Cc1cc2c(cc1C(=O)c1ccc(I)cc1)OCO2 [3c] ... 1790
O=C(O)Cc1cc2c(cc1C(=O)c1ccccc1)OCO2 [4a] ... 1940

Then this molecule:
### Prompt Need CC50 at 24 h, item O=C(O)Cc1cc2c(cc1C(=O)c1ccc(Cl)cc1Cl)OCO2 [4f]
### Response 1020

* * *

# testedSystem: human recombinant COX2 (Homo sapiens, UniProt P35354)
# Construct: purchased Cayman Chemical 560131 (kit)
# Sequence (P35354 18-604): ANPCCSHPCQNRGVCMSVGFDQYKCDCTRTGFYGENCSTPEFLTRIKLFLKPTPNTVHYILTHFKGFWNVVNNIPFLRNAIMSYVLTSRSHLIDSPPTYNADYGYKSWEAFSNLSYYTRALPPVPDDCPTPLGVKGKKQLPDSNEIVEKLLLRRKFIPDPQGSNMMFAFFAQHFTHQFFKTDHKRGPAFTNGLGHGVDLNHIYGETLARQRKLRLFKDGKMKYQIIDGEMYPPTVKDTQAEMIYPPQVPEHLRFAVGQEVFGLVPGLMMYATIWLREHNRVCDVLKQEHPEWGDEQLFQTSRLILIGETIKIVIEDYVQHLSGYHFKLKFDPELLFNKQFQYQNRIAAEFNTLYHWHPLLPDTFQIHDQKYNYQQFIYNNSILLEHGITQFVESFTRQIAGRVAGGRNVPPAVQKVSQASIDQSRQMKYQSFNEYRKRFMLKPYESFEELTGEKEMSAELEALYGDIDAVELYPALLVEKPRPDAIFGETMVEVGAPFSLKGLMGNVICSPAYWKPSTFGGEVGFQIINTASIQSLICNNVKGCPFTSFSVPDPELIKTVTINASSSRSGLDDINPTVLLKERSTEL
# assay: COX inhibitor screening assay kit (Cayman No. 560131), COX2
# Assay type: biochemical
# testConditions: run in duplicate with three concentrations (50, 20, and 5 µM)
Record form. Attribute: IC50. Fill in for each entry.
Answers are plain numbers, in µM.

Past entries and their recorded results:
COC(=O)Cc1cc2c(cc1C(=O)c1ccc(I)cc1)OCO2 [3c] ... 37.5
COC(=O)Cc1cc2c(cc1C(=O)c1cccc(Br)c1)OCO2 [3e] ... 2.73
O=C(O)Cc1cc2c(cc1C(=O)c1cccc(Br)c1)OCO2 [4e] ... 49.3
COC(=O)Cc1cc2c(cc1C(=O)c1ccccc1I)OCO2 [3b] ... 1.3
O=C(O)Cc1cc2c(cc1C(=O)c1ccc(Cl)cc1Cl)OCO2 [4f] ... 4.29

Hi, could you look up IC50 for each item in my list?
1. O=C(O)Cc1cc2c(cc1C(=O)c1ccccc1I)OCO2 [4b]
2. O=C(O)Cc1cc2c(cc1C(=O)c1ccccc1)OCO2 [4a]
3. O=C(O)Cc1cc2c(cc1C(=O)c1ccc(I)cc1)OCO2 [4c]
4. COC(=O)Cc1cc2c(cc1C(=O)c1ccccc1Br)OCO2 [3d]

### Response
1. 30.7
2. 3.34
3. 39.1
4. 1.45

# batch: return IC50 for each of the 2 compounds below
1. O=C(O)Cc1cc2c(cc1C(=O)c1ccccc1Br)OCO2 [4d]
2. COC(=O)Cc1cc2c(cc1C(=O)c1ccccc1)OCO2 [3a]

### Response
[2.35, 14.3]

Values from paper PMC7487730
